Cited source for all entries: PubChem BioAssay AID1919015

system: OVCAR-5 complex spheroids with HUVEC/MSC, viability, % test/control; assay: Anticancer human tumor OVCAR-5 cell line growth inhibition [AhR]; conditions: second compound 10 µM; first compound 0.03 µM; active compounds read low;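 also: spheroids exposed to compounds for 7 days; 100% = DMSO vehicle control wells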
viability, T/C under 30% gets Y, anything at or over 30% gets N.

Reference set (5 entries):
1. Nc1ncn(C2CC(O)C(CO)S2)c(=O)n1 (stereo unspecified) + Cc1cncc(-c2nc(NCCc3c[nH]c4ccccc34)c3ncn(C(C)C)c3n2)c1: Y
2. CCc1c2c(nc3ccc(O)cc13)-c1cc3c(c(=O)n1C2)COC(=O)[C@]3(O)CC + Cc1cncc(-c2nc(NCCc3c[nH]c4ccccc34)c3ncn(C(C)C)c3n2)c1: Y
3. Nc1ncn(C2CC(O)C(CO)S2)c(=O)n1 (stereo unspecified) + Cc1ccccc1N=Nc1ccc(NC(=O)c2ccnn2C)c(C)c1: N
4. CCc1c2c(nc3ccc(O)cc13)-c1cc3c(c(=O)n1C2)COC(=O)[C@]3(O)CC + Cc1ccccc1N=Nc1ccc(NC(=O)c2ccnn2C)c(C)c1: N
5. CC(C)CC(NC(=O)C(Cc1ccccc1)NC(=O)c1cnccn1)B(O)O (stereo unspecified) + CC(CO)NC(=O)c1cc(-c2ccc(Cl)cc2)nn(-c2cnn(C)c2)c1=O: N

Please find the next compound below.
Ask: Strictly below 30% in viability, T/C? CCN(c1cc(-c2ccc(CN3CCOCC3)cc2)cc(C(=O)NCc2c(C)cc(C)[nH]c2=O)c1C)C1CCOCC1 + Cc1ccccc1N=Nc1ccc(NC(=O)c2ccnn2C)c(C)c1
Reply: N

====

system: OVCAR-5 complex spheroids with HUVEC/MSC, viability, % test/control; assay: Anticancer human tumor OVCAR-5 cell line growth inhibition [AhR]; details: second compound 1 µM; first compound 0.003 µM; active compounds read low;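 also: spheroids exposed to compounds for 7 days; 100% = DMSO vehicle control wells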
For each entry below, report its viability, T/C value.
One number for each entry, in %.

1. CCc1c2c(nc3ccc(O)cc13)-c1cc3c(c(=O)n1C2)COC(=O)[C@]3(O)CC + CC(CO)NC(=O)c1cc(-c2ccc(Cl)cc2)nn(-c2cnn(C)c2)c1=O: 54.6
2. CC(C)CC(NC(=O)C(Cc1ccccc1)NC(=O)c1cnccn1)B(O)O (centres undefined) + CC(CO)NC(=O)c1cc(-c2ccc(Cl)cc2)nn(-c2cnn(C)c2)c1=O: 111
3. Nc1ncn(C2CC(O)C(CO)S2)c(=O)n1 (centres undefined) + Cc1ccccc1N=Nc1ccc(NC(=O)c2ccnn2C)c(C)c1: 115
4. CCc1c2c(nc3ccc(O)cc13)-c1cc3c(c(=O)n1C2)COC(=O)[C@]3(O)CC + Cc1ccccc1N=Nc1ccc(NC(=O)c2ccnn2C)c(C)c1: 73.4
5. Nc1ncn(C2CC(O)C(CO)S2)c(=O)n1 (centres undefined) + Cc1cncc(-c2nc(NCCc3c[nH]c4ccccc34)c3ncn(C(C)C)c3n2)c1: 88.7

Each of the following entries comes with a recorded value; kindly state viability, T/C for each.
1. CC(C)CC(NC(=O)C(Cc1ccccc1)NC(=O)c1cnccn1)B(O)O (centres undefined) + Cc1ccccc1N=Nc1ccc(NC(=O)c2ccnn2C)c(C)c1
2. CC(C)CC(NC(=O)C(Cc1ccccc1)NC(=O)c1cnccn1)B(O)O (centres undefined) + Cc1cncc(-c2nc(NCCc3c[nH]c4ccccc34)c3ncn(C(C)C)c3n2)c1
3. CCc1c2c(nc3ccc(O)cc13)-c1cc3c(c(=O)n1C2)COC(=O)[C@]3(O)CC + Cc1cncc(-c2nc(NCCc3c[nH]c4ccccc34)c3ncn(C(C)C)c3n2)c1
4. Nc1ncn(C2CC(O)C(CO)S2)c(=O)n1 (centres undefined) + CC(CO)NC(=O)c1cc(-c2ccc(Cl)cc2)nn(-c2cnn(C)c2)c1=O

Reply:
1. 112
2. 95
3. 51.4
4. 112

====

test system: OVCAR-5 complex spheroids with HUVEC/MSC, viability, % test/control; assay: Anticancer human tumor OVCAR-5 cell line growth inhibition [AhR]; settings: second compound 10 µM; first compound 10 µM; active compounds read low;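 also: spheroids exposed to compounds for 7 days; 100% = DMSO vehicle control wells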
I'd be grateful if you could share measured viability, T/C for these entries.
One number for each entry, in %.

The cases that follow already have their viability, T/C on record.
1) CC1(C)CCC(CN2CCN(c3ccc(C(=O)NS(=O)(=O)c4ccc(NCC5CCOCC5)c([N+](=O)[O-])c4)c(Oc4cnc5[nH]ccc5c4)c3)CC2)=C(c2ccc(Cl)cc2)C1 + Cc1cncc(-c2nc(NCCc3c[nH]c4ccccc34)c3ncn(C(C)C)c3n2)c1: 9.47
2) CC1COCCN1c1cc(C2(S(C)(=N)=O)CC2)nc(-c2ccnc3[nH]ccc23)n1 (stereo not given) + CC(CO)NC(=O)c1cc(-c2ccc(Cl)cc2)nn(-c2cnn(C)c2)c1=O: 43.7
3) COc1cc(C2c3cc4c(cc3C(OC3OC5COC(C)OC5C(O)C3O)C3COC(=O)C23)OCO4)cc(OC)c1O (stereo not given) + CC(CO)NC(=O)c1cc(-c2ccc(Cl)cc2)nn(-c2cnn(C)c2)c1=O: 40.1

Batch of 4 molecules: report viability, T/C for each.
1. COc1cccc2c1C(=O)c1c(O)c3c(c(O)c1C2=O)CC(O)(C(=O)CO)CC3OC1CC(N)C(O)C(C)O1 (stereo not given) + Cc1ccccc1N=Nc1ccc(NC(=O)c2ccnn2C)c(C)c1
2. COc1ccc([C@@H](O)c2cc(-c3ncnc4cc(N5CCOCC5)ccc34)c(F)cc2Cl)nn1 + Cc1ccccc1N=Nc1ccc(NC(=O)c2ccnn2C)c(C)c1
3. COc1cccc2c1C(=O)c1c(O)c3c(c(O)c1C2=O)CC(O)(C(=O)CO)CC3OC1CC(N)C(O)C(C)O1 (stereo not given) + CC(CO)NC(=O)c1cc(-c2ccc(Cl)cc2)nn(-c2cnn(C)c2)c1=O
4. COc1ccc([C@@H](O)c2cc(-c3ncnc4cc(N5CCOCC5)ccc34)c(F)cc2Cl)nn1 + Cc1cncc(-c2nc(NCCc3c[nH]c4ccccc34)c3ncn(C(C)C)c3n2)c1

Reply:
1: 1.24; 2: 22.8; 3: 1.12; 4: 3.46

Give viability, T/C for all molecules that follow.
1. COc1cc(Nc2ncc3c(n2)-c2ccc(Cl)cc2C(c2c(F)cccc2OC)=NC3)ccc1C(=O)O + CC(CO)NC(=O)c1cc(-c2ccc(Cl)cc2)nn(-c2cnn(C)c2)c1=O
2. O=C(c1cc(Cc2n[nH]c(=O)c3ccccc23)ccc1F)N1CCN(C(=O)C2CC2)CC1 + Cc1ccccc1N=Nc1ccc(NC(=O)c2ccnn2C)c(C)c1
3. COc1cc(C2c3cc4c(cc3C(OC3OC5COC(C)OC5C(O)C3O)C3COC(=O)C23)OCO4)cc(OC)c1O (stereo not given) + Cc1ccccc1N=Nc1ccc(NC(=O)c2ccnn2C)c(C)c1
4. CC1(C)CCC(CN2CCN(c3ccc(C(=O)NS(=O)(=O)c4ccc(NCC5CCOCC5)c([N+](=O)[O-])c4)c(Oc4cnc5[nH]ccc5c4)c3)CC2)=C(c2ccc(Cl)cc2)C1 + CC(CO)NC(=O)c1cc(-c2ccc(Cl)cc2)nn(-c2cnn(C)c2)c1=O
5. COc1cc(Nc2ncc3c(n2)-c2ccc(Cl)cc2C(c2c(F)cccc2OC)=NC3)ccc1C(=O)O + Cc1ccccc1N=Nc1ccc(NC(=O)c2ccnn2C)c(C)c1
6. COc1cccc2c1C(=O)c1c(O)c3c(c(O)c1C2=O)CC(O)(C(=O)CO)CC3OC1CC(N)C(O)C(C)O1 (stereo not given) + Cc1cncc(-c2nc(NCCc3c[nH]c4ccccc34)c3ncn(C(C)C)c3n2)c1
7. CC(C)c1c(-c2ccccc2)nc2c(C#N)c[nH]n2c1=O + CC(CO)NC(=O)c1cc(-c2ccc(Cl)cc2)nn(-c2cnn(C)c2)c1=O

Reply:
1. 50.4
2. 89.1
3. 38.9
4. 57.6
5. 46.6
6. 1.89
7. 104

Ask: Look up viability, T/C: Nc1ccn(C2OC(CO)C(O)C2(F)F)c(=O)n1 (stereo not given) + Cc1cncc(-c2nc(NCCc3c[nH]c4ccccc34)c3ncn(C(C)C)c3n2)c1
Reply: 9.03

====

Test system: OVCAR-5 complex spheroids with HUVEC/MSC, viability, % test/control
Test: Anticancer human tumor OVCAR-5 cell line growth inhibition [AhR]; active = viability on the fitted dose curve at most 10% of control; inactive = the rest;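 also: spheroids exposed to compounds for 7 days; 100% = DMSO vehicle control wells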
Conditions: second compound 3.16 µM; first compound 0.3 µM
Source text: Multicellular complex tumor spheroid response to aryl hydrocarbon receptor antagonists in combination with a variety of drugs and investigational agents in selected tumor cell lines […] Compounds. […] If the clinical Cmax for an agent had not been determined, the highest concentration tested was 10 microM (Table 1). […]
A correct response names exactly one class from yes (1) for active, no (0) for inactive

# example entries with known answers
1) O=C(C=Cn1cnc(-c2cc(C(F)(F)F)cc(C(F)(F)F)c2)n1)NNc1cnccn1 + Cc1cncc(-c2nc(NCCc3c[nH]c4ccccc34)c3ncn(C(C)C)c3n2)c1: no (0)
2) Nc1ncn(C2CC(O)C(CO)S2)c(=O)n1 (centres undefined) + Cc1ccccc1N=Nc1ccc(NC(=O)c2ccnn2C)c(C)c1: no (0)
3) Nc1ncn(C2CC(O)C(CO)S2)c(=O)n1 (centres undefined) + Cc1cncc(-c2nc(NCCc3c[nH]c4ccccc34)c3ncn(C(C)C)c3n2)c1: no (0)
4) CC(C)CC(NC(=O)C(Cc1ccccc1)NC(=O)c1cnccn1)B(O)O (centres undefined) + CC(CO)NC(=O)c1cc(-c2ccc(Cl)cc2)nn(-c2cnn(C)c2)c1=O: no (0)
5) CC(C)CC(NC(=O)C(Cc1ccccc1)NC(=O)c1cnccn1)B(O)O (centres undefined) + Cc1ccccc1N=Nc1ccc(NC(=O)c2ccnn2C)c(C)c1: no (0)

Ask: Write down the call the test reported for this molecule. Item: CCN(c1cc(-c2ccc(CN3CCOCC3)cc2)cc(C(=O)NCc2c(C)cc(C)[nH]c2=O)c1C)C1CCOCC1 + Cc1cncc(-c2nc(NCCc3c[nH]c4ccccc34)c3ncn(C(C)C)c3n2)c1
Reply: no (0)

Ask: Could you please tell me the result logged for CCN(c1cc(-c2ccc(CN3CCOCC3)cc2)cc(C(=O)NCc2c(C)cc(C)[nH]c2=O)c1C)C1CCOCC1 + Cc1ccccc1N=Nc1ccc(NC(=O)c2ccnn2C)c(C)c1 in this assay?
Reply: no (0)

Ask: Per the records of this test, what outcome belongs to CCc1c2c(nc3ccc(O)cc13)-c1cc3c(c(=O)n1C2)COC(=O)[C@]3(O)CC + Cc1ccccc1N=Nc1ccc(NC(=O)c2ccnn2C)c(C)c1 ?
Reply: yes (1)

Ask: Hi, do you know how O=C(C=Cn1cnc(-c2cc(C(F)(F)F)cc(C(F)(F)F)c2)n1)NNc1cnccn1 + Cc1ccccc1N=Nc1ccc(NC(=O)c2ccnn2C)c(C)c1 came out in this test?
Reply: no (0)
